tested on: RXF 393 renal; test: NCI tumour cell line growth inhibition, 48 h
Listed next: entries and their corresponding GI50.

The cases that follow already have their GI50 on record.
CC(C)(C)OC(=O)N1CC(Cn2cc(C(F)(F)F)c3c(Cl)ncnc32)C1 | 1430 nM
O=[N+]([O-])c1cccc(/C=C/c2ccccn2)c1 | 8600 nM
Cc1cc(O)c(C2=NN(c3ccc(S(N)(=O)=O)cc3)C(c3ccccc3O)C2)cc1Cl (stereo not drawn) | 2050 nM

The recorded GI50 for COc1cc(-c2cc(-c3nc4cc(Cl)c(Cl)cc4[nH]3)[nH]n2)cc(OC)c1OC is 3170 nM

Documented GI50 of OC(COc1cccc2ccccc12)CN1CCN(c2ccc(Cl)cc2)CC1 (stereo not drawn) : 28600 nM

Lab note: Clc1nc(Cl)c2ncn(C/C=C/Cn3cnc4c(Cl)nc(Cl)nc43)c2n1 gave GI50 of 2300 nM

The compound identified as COc1cccc2c1nc1cccc(OC)c1[n+]2[O-] registered its GI50 at 4360 nM

GI50 reading for COc1cccc2c1C(=O)c1c(O)c3c(c(O)c1C2=O)C[C@@](O)(C(=O)CO)C[C@@H]3OC1CC(OC(C)=O)C(OC(C)=O)C(C)O1 (stereo partly drawn) : 1410 nM

====

system: OVCAR-4 ovarian; test: NCI tumour cell line growth inhibition, 48 h; in the data active means GI50 below about 0.43 µM; inactive means the rest
Outcomes you can answer with include only these: active, inactive

For orientation, consider the following solved cases.
COc1ccc2c(O)c(/C=C3\N=Nc4ncccc43)oc2c1C[C@H]1CCNC[C@H]1F | inactive
COc1ccc2[nH]c(-c3ccccc3)c(C=C(C#N)C#N)c2c1 | inactive
C=C(C)[C@@H]1CC[C@]2(C(=O)Nc3ccccn3)CC[C@]3(C)[C@H](CC[C@@H]4[C@@]5(C)CCCNC(C)(C)[C@@H]5CC[C@]43C)[C@@H]12 | inactive
COc1cc(OC)cc(-c2ccc(-c3ccc(C(=N)N)s3)s2)c1 | inactive
C=CCC(N[C@@H](CO)c1ccccc1)c1ccccn1 (stereo partly specified) | inactive

Kindly review the next compound as well.
What outcome does the record of this test show for CCN1/C(=C/C=C/C=C/c2sc3ccccc3[n+]2CC)Sc2ccccc21 ?
active

====

List of TGI values.
tested on: HOP-18 NSCLC; test: NCI tumour cell line growth inhibition, 48 h

Completed entries (count: 10):
CN/C=C(/c1ccc(OC)cc1)C(O)c1ccc(OC)c(OC)c1 (centres undefined) | > 100 µM
Cc1cc2c(=O)cc(-c3ccc(C(F)(F)F)cc3)oc2c(C(=O)O)c1C | > 100 µM
O=C(CSc1nnc(Cc2ccccc2)o1)Nc1ccccc1Cl | > 100 µM
COc1cc2c(cc1O)[C@H](C)C(c1ccccc1OC)O2 (some centres undefined) | > 100 µM
CC1C(/C=C/c2ccoc2)ON2CCCC12 (centres undefined) | > 100 µM
COc1cc(C(C#N)NNC(=O)Cc2ccccc2)cc(OC)c1OC (centres undefined) | > 100 µM
NC(=S)N/N=C1\C(=O)N(CCc2ccccc2)C(=O)C1C(=O)NCCc1ccccc1 (centres undefined) | > 100 µM
C=C(CN(C)C)C(=O)c1ccc(C)cc1C | 30.3 µM
COc1ccc([C@@H]2CC(=O)NCCCNCCCCNCCCN2)cc1 | > 100 µM
CCCCCCCCCCCCC/C=C1\C[C@H](O)COC1=O | 31.6 µM

Reading of TGI for CC(C)=CCc1c(O)ccc2c1OC1c3ccc(O)c(CC=C(C)C)c3OCC21 (centres undefined) with HOP-18 NSCLC: 33.3 µM

Test item COc1ccc(OC)c(/C=C/C(=O)C(C)(C)C)c1 ; HOP-18 NSCLC; reported TGI was 38.9 µM

The molecule Cc1cc(Cl)ccc1NC(=O)C(=O)Cc1ccc([N+](=O)[O-])c([N+](=O)[O-])c1CC(=O)C(=O)Nc1ccc(Cl)cc1C , when measured on HOP-18 NSCLC, yielded TGI of > 100 µM

So the reported TGI for CC[C@@]1(O)C[C@H](OC2CC(N(C)C)C(OC3CC(O)C(OC4CCC(=O)C(C)O4)C(C)O3)C(C)O2)c2c(cc3c(c2O)C(=O)c2c(O)ccc(O)c2C3=O)[C@H]1C(=O)OC (some centres undefined) , on HOP-18 NSCLC, turned out to be 24.1 µM

Hey, HOP-18 NSCLC data for Cc1cccc(Cl)c1NC(N)=S : TGI came out at 98.6 µM

Lab note: molecule Nc1ccc(C(=O)NN2C(=O)C(Cl)C2c2cc(Br)cc(Br)c2O)cc1 (centres undefined) tested on HOP-18 NSCLC; recorded TGI was 38.2 µM

The reported TGI value, HOP-18 NSCLC, for Cc1ccc(/C=N/NS(=O)(=O)c2ccccc2)cc1 reads > 100 µM

So the reported TGI for CCCCNC(=O)OCC(COc1ccccc1OC)OC(=O)NCCCC (centres undefined) , on HOP-18 NSCLC, turned out to be > 100 µM

Item: COc1ccc2nc3ccccc3c(NCCCCCN(CCCl)CCCl)c2c1 | System: HOP-18 NSCLC | TGI: > 27.3 µM
